Assign pKd to each entry below.
- testedTarget: T1, Extracellular domain (ECD) of the canine IL-4 receptor alpha-AviTag-His Tag (canine)
- T1 construct: expressed in CHO cells; also called canine IL-4RA; canine IL4Ra
- T1 chain: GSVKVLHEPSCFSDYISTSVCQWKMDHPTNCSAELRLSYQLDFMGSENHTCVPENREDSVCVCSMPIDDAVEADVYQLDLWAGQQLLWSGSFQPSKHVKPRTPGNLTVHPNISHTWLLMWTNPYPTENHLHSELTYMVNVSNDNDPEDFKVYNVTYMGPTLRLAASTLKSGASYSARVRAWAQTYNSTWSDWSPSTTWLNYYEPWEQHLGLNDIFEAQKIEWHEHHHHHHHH
- experiment: SPR, IgG captured via anti-dog Fc
Numbers only, as −log10 of the molar value.

21188-H + GFmix_THS-L (antibody, V domains shown) VH: EVQLVESGGDLVKPGGSLRLSCVASGFTFRDYAMTWVRQAPGKGLQWLSLISGSGGKTYYADAVKGRFTISRDNAKNTLYLQMNSLRAEDTAVYYCAVDRLTKTIRPQYYGLWHWGQGTLVTVSS VL: DIVMTQTPLSLSVSPGETASISCRSSQSLTYSIGYNYLDWYMQKPGQSPQGLIYLGSKRASGVSDRFSGSGSGADFTLKISRVEADDAGVYYCMQGLHSPLGFGQGTKLEIKR : 9.79

As a next step, examine the binder that follows.
Input 21188-H + FJP10A09-L (antibody, V domains shown) VH: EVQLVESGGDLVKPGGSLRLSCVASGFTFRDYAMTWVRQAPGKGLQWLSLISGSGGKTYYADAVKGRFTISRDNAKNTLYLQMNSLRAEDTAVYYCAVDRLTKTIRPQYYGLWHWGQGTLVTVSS VL: DIVMTQTPLSLSVSPGETASISCRSSQSLTYSIGYNYLDWYMQKPGQSPQGLIYLGSKRASGVSDRFSGSGSGADFTLKISRVEADDAGVYYCMQGLHSPLSFGQGTKLEIKR . Output pKd: 9.84
